- Test system: HOP-92
- PROTOCOL_TEXT: NCI tumour cell line growth inhibition, 48 h
Activity calls are given as the source filed them. Cut-off read from the data, not from the text of the source: active = GI50 up to about 1.1 µM and inactive = higher.
Below is a list of entries, each paired with its recorded GI50 value.
READOUT: GI50

[[record]]
compound = "O=C1/C(=C/c2ccc3c(c2)OCO3)Sc2scc(-c3ccc(O)c(O)c3)[n+]21"
result = "2.65 µM (inactive)"

[[record]]
compound = "N#CC(Cc1ccccc1)N(CCC1=CCCCC1)Cc1ccccc1 (stereo not given)"
result = "35.1 µM (inactive)"

[[record]]
compound = "NC(=O)C12CCC1C1CCCCC12N1CCOCC1 (stereo not given)"
result = "> 100 µM (inactive)"

[[record]]
compound = "CCCCCCCCOCC(COC(=O)CCCCCCC)OC(=O)CCCCCCC (stereo not given)"
result = "51.5 µM (inactive)"

[[record]]
compound = "NC1C/C(=N\\O)c2c(Cl)sc(Cl)c21 (stereo not given)"
result = "22.9 µM (inactive)"


====

- Tested on: M19-MEL
- PROTOCOL_TEXT: NCI tumour cell line growth inhibition, 48 h
Activity calls are given as the source filed them. Rule as the data show it: active = GI50 up to about 1.1 µM and inactive = higher.
Below is a list of entries, each paired with its recorded GI50 value.
READOUT: GI50

[[record]]
molecule = "O=[N+]([O-])c1cccc(C2=NOC(C3CCCCC3)C2)c1 (stereo unspecified)"
readout = "GI50"
result = "> 100 µM (inactive)"

[[record]]
molecule = "O=C1C2c3[nH]c4ccccc4c3C3CCCCC3C2C(=O)N1c1ccccc1 (stereo unspecified)"
readout = "GI50"
result = "> 100 µM (inactive)"

[[record]]
molecule = "CC(=O)OC1CC2C(C)(C)OC(=O)CC(OC(C)=O)[C@]2(C)C2CCC3(C)C(=CCC3[C@H]3COC(=O)C3)[C@]12C (stereo partly specified)"
readout = "GI50"
result = "80.2 µM (inactive)"

[[record]]
molecule = "O=c1c2c(c1=O)-c1ccccc1CN2"
readout = "GI50"
result = "> 100 µM (inactive)"

[[record]]
molecule = "Cc1nc2c(o1)/C(=N\\c1ccccc1)c1ccccc1C2=O"
readout = "GI50"
result = "1.86 µM (inactive)"

[[record]]
molecule = "CCc1cc(C(=O)OC)cn1C(=N)c1ccc(Cl)cc1"
readout = "GI50"
result = "> 100 µM (inactive)"

[[record]]
molecule = "CCCNc1ncnc2c1cnn2C"
readout = "GI50"
result = "> 100 µM (inactive)"

[[record]]
molecule = "O=C1c2ccccc2C(=O)c2c1ccc1c2N=C(c2ccc(F)cc2)CC(c2ccc(Cl)c(Cl)c2)N1 (stereo unspecified)"
readout = "GI50"
result = "17.2 µM (inactive)"

[[record]]
molecule = "CC1=Nc2ccccc2NC(c2ccoc2)C1 (stereo unspecified)"
readout = "GI50"
result = "> 100 µM (inactive)"

[[record]]
molecule = "CC(=O)O[C@]12CCCC1C1(O)C(O)CCCC12 (stereo partly specified)"
readout = "GI50"
result = "> 100 µM (inactive)"

[[record]]
molecule = "Cc1cn(C2OC(C)(CO)C(O)C2O)c(=O)[nH]c1=O (stereo unspecified)"
readout = "GI50"
result = "> 100 µM (inactive)"


====

- Tested on: K562
- PROTOCOL_TEXT: NCI tumour cell line growth inhibition, 48 h
Activity calls are given as the source filed them. No stated cut-off is given here; in the data, active = GI50 up to about 1.1 µM and inactive = higher.
Outcomes: yes (1) for active, no (0) for inactive

[[record]]
compound = "O=c1c2ccccc2c(=O)c2c1cc(Cl)c1[nH]c3c([nH]c12)c(Cl)cc1c(=O)c2ccccc2c(=O)c13"
group = "no (0)"

[[record]]
compound = "N#C/C(=C\\c1ccc2ccccc2c1)C(=O)c1ccccc1"
group = "no (0)"

[[record]]
compound = "CC#CCOC(=O)c1ccccc1OC(C)=O"
group = "no (0)"

[[record]]
compound = "Nc1ccccc1C(=O)CC1OC(=O)c2ccccc21 (stereo unspecified)"
group = "no (0)"

[[record]]
compound = "COc1ccc(C(=O)O)c2c(=O)c3ccccc3[nH]c12"
group = "no (0)"

[[record]]
compound = "N#CC(Cc1ccccc1)N(CCC1=CCCCC1)Cc1ccccc1 (stereo unspecified)"
group = "no (0)"

[[record]]
compound = "CCc1cc(C(=O)OC)cn1C(=N)c1ccc(Cl)cc1"
group = "no (0)"

[[record]]
compound = "Cc1ccc(/N=N/c2c(-c3ccccc3)nn(C(=O)CC(=O)Nc3ccc(Cl)cc3)c2-c2ccccc2)cc1"
group = "no (0)"

[[record]]
compound = "COc1ccc(OC)c(CNc2ccc(O)c(C(=O)NCCc3ccc(F)cc3)c2)c1"
group = "no (0)"

[[record]]
compound = "O=C(c1ccc(Cl)cc1)N(C(=S)OC12CC3CC(CC(C3)C1)C2)c1ccccc1"
group = "no (0)"

[[record]]
compound = "COc1ccc(C2c3c[nH]nc3CC3CCCCC32)cc1 (stereo unspecified)"
group = "no (0)"

[[record]]
compound = "SCCCSCCSCCCSCCS"
group = "no (0)"

[[record]]
compound = "C(/C=N/N=C1NCCCN1)=N\\N=C1NCCCN1"
group = "no (0)"

[[record]]
compound = "O=S(=O)(O)c1ccc(/N=N/c2ccc(/N=N/c3c(O)ccc4ccccc34)c(S(=O)(=O)O)c2)cc1"
group = "no (0)"

[[record]]
compound = "Cc1csc2c1-n1cccc1C2=O"
group = "no (0)"

[[record]]
compound = "Clc1nc(Cl)c(Cl)c(Cl)n1"
group = "no (0)"

[[record]]
compound = "CSC(=S)N/N=C/c1ccccc1"
group = "no (0)"

[[record]]
compound = "CCOC(=O)C12CC(C)=C(C)CC1CCCc1ccccc12 (stereo unspecified)"
group = "no (0)"

[[record]]
compound = "O=C(/C=C(\\O)C(=O)O)/C=C(\\O)c1ccc(Cl)cc1"
group = "no (0)"

[[record]]
compound = "COc1ccc(-c2cnoc2-c2ccc(OC)c(OC)c2)cc1OC"
group = "yes (1)"

[[record]]
compound = "CC1C[C@H](C)CC(C(O)CC2CC(=O)N(Cc3ccccc3)C(=O)C2)C1O (stereo partly specified)"
group = "no (0)"

